- System: M14
- test: NCI tumour cell line growth inhibition, 48 h
Calls of active or inactive are those of the source. No stated cut-off is given here; in the data, active = GI50 up to about 1.1 µM and inactive = higher.
Tick one outcome: active, inactive

Req: Field: outcome | Entry: C=C1CC(C)(COc2ccc3c(C)c(C)c(=O)oc3c2C)OC1=O (stereo not drawn)
Resp: inactive

Req: What classification did CCCCCCCC(=O)OCC1OC(n2cc(F)c(=O)[nH]c2=O)C(NC(=O)OCc2ccccc2)C(OC(=O)CCCCCCC)C1O (stereo not drawn) end up with in this test?
Resp: inactive

Req: Which outcome was entered for the compound O=C1C(Cl)=C(N2CCSCC2)C(=O)c2c(O)ccc(O)c21 in this test?
Resp: active

---

- Tested on: KM12
- test: NCI tumour cell line growth inhibition, 48 h
The source made the active and inactive calls. No stated cut-off is given here; in the data, active = GI50 up to about 1.1 µM and inactive = higher.
Please reply with one of these outcomes: Yes for active, No for inactive

COc1ccc(C(=O)N2CCN(c3ccc4c(c3)OCC(=O)N4)CC2)cc1OC ... No

Req: Please share the test call associated with CN(Cc1cnc2nc(N)nc(N)c2n1)c1ccc(C(=O)N[C@@H](CCS(=O)(=O)O)C(=O)O)cc1 .
Resp: No

Req: Status in this test for CC1=NN(c2cccc(Cl)c2)C2(C1)C(Cl)C(=O)N2c1nc2ccccc2s1 (stereo unspecified) ?
Resp: No

Req: How did this test come out for NCCn1ccc(NC(c2ccccc2)(c2ccccc2)c2ccccc2)nc1=O ?
Resp: No

Req: Please let me know the test result on file for CNc1ccc2c(c1)[C@@]1(C)c3ccccc3[C@@H](C2)N1C .
Resp: No

Req: Dear colleague, could you share the recorded outcome for C=C1[C@@H](OC(C)=O)[C@H]2[C@@H](OC(C)=O)[C@@](C)(OC(C)=O)C[C@]2(OC(C)=O)C(=O)[C@@H](C)/C=C/C(C)(C)C(=O)C[C@H]1OC(C)=O when you have a moment?
Resp: No

---

- System: IGROV-1
- test: NCI tumour cell line growth inhibition, 48 h
The source made the active and inactive calls. No stated cut-off is given here; in the data, active = GI50 up to about 1.1 µM and inactive = higher.
propertyMeasured: GI50

Reference set, count: 2
CCOC(=O)N/N=C(/N)c1cccc(Br)c1 ... > 100 µM (inactive)
CCN1CCC(O)(/C=C/c2ccc(C)cc2C)C(C(=O)/C=C/c2ccc(C)cc2C)C1 (centres undefined) ... 2.89 µM (inactive)

Req: I have this molecule here, CC(=O)/C=C1\CC(=O)N(C)c2ccccc2N1 , and I need its recorded GI50.
Resp: > 100 µM (inactive)

Req: Which value of GI50 has been reported for CC(C)(Oc1ccccc1)C(=O)Sc1c(-c2ccccc2)c(=O)n(-c2ccccc2)c(=S)n1-c1ccccc1 in the records?
Resp: 22.6 µM (inactive)

---

- System: UACC-62
- test: NCI tumour cell line growth inhibition, 48 h
Calls of active or inactive are those of the source. Rule as the data show it: active = GI50 up to about 1.1 µM and inactive = higher.
GI50 reference

Examples with their reported GI50 follow.
CNc1nc(N)cc(O)n1 ... > 100 µM (inactive)
Cc1ccc2nc3c(=O)[nH]c(=O)nc-3n(C)c2c1C ... > 100 µM (inactive)

Req: Which GI50 is reported for this compound? c1ccc2c(c1)nnn2CNc1ccc(N2CCOCC2)cc1
Resp: > 100 µM (inactive)

---

- System: SNB-19
- test: NCI tumour cell line growth inhibition, 48 h
Active and inactive are the calls of the source. Rule as the data show it: active = GI50 up to about 1.1 µM and inactive = higher.
Write down one outcome, taken from 1 for active, 0 for inactive

Take a look at these entries with their results.
C/C(CC/C(C)=N/O)=N\O ... 0
COc1ccc2[nH]cc(C(=O)C(=O)NC34CC5CC(CC(C5)C3)C4)c2c1 ... 0
N#CC1(c2nc3ccccc3o2)C(=O)C(=O)N(C2C3CC4CC(C3)CC2C4)C(=O)C1=O (stereo unspecified) ... 0
C=CC(=O)C#CC#CC/C=C\CCCCCCC ... 0

Req: Dear colleague, could you share the recorded outcome for CCOC(=O)N1CCC(N[C@@H]2c3cc4c(cc3[C@@H](c3cc(OC)c(O)c(OC)c3)[C@H]3C(=O)OC[C@@H]32)OCO4)CC1 when you have a moment?
Resp: 1

Req: What outcome does the record of this test show for CC[C@H]1C=CCC[C@@]2(C[C@@H]3CC[C@@H]4[C@H](C(=O)OCCCCCCCCCCCCCCCC(=O)N(CCCN)CCCCN)[C@]5(CCC[C@@H](C)O5)NC(=[N+]34)N2)O1 ?
Resp: 1

Req: Please share the test call associated with COc1ccc(N(C)C(=O)N(C)c2ccc([N+](=O)[O-])cc2)cc1 .
Resp: 0

Req: Which outcome was assigned to CN1CN(c2ccccc2)C2(CCN(CCCC(=O)c3cccs3)CC2)C1=O in this test?
Resp: 0

Req: Write down the call the test reported for this molecule. Item: COC1C(OC(=O)/C=C/C=C/C=C/C=C\C(=O)O)CCC2(CO2)C1C1(C)OC1CC=C(C)C (stereo unspecified)
Resp: 0

Req: Look up the recorded call for Cc1ccc(/C=C2\NC(=S)N(CN3CCOCC3)C2=O)cc1 in this test.
Resp: 0

Req: Recorded call for Cc1cccc(C)c1NC(=S)NC=C1C(=O)c2ccccc2C1=O ?
Resp: 0
